FYI, the data here is from patent US20100098708A1.

Target: RSV F protein (immobilised antigen of Example 6.1) (respiratory syncytial virus)
Sequence (P03420 26-524): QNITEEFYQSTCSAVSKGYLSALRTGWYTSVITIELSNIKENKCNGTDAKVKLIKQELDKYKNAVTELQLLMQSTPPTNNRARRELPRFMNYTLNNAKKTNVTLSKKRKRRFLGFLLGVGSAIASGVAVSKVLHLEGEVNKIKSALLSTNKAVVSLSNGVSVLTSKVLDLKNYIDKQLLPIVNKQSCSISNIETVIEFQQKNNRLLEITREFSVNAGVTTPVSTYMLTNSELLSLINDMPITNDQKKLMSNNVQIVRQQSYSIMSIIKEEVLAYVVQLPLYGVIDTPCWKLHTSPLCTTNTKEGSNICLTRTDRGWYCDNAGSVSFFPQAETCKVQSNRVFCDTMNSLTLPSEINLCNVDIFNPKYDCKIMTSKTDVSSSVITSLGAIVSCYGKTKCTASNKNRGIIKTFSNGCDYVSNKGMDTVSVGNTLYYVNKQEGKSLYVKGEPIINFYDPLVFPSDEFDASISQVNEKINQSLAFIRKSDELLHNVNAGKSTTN
Assay: BIAcore

binder	koff, s⁻¹
A13c4 Fab (Fab, V domains shown, Fab) VH: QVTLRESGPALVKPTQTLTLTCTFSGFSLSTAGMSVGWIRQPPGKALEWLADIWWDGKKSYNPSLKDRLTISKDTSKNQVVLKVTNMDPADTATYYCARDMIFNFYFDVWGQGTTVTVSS VL: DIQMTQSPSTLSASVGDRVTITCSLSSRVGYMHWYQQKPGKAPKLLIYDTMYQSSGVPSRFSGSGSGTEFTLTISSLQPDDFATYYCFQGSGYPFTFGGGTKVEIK	0.00028
A1e9 Fab (Fab, V domains shown, Fab; also called Ale9) VH: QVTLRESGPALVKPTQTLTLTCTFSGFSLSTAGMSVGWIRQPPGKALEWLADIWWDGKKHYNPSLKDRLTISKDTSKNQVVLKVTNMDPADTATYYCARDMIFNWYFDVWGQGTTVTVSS VL: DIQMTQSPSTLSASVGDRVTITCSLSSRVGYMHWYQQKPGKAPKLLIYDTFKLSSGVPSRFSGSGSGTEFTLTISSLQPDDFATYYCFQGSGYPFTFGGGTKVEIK	0.000453
P11d4 Fab (Fab, V domains shown, Fab) VH: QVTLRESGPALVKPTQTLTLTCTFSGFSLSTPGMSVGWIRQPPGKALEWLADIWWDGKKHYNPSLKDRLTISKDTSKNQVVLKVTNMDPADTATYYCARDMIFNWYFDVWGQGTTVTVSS VL: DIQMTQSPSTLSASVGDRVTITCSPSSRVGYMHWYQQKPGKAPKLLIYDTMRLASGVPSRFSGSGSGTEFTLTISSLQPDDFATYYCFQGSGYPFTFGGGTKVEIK	0.000717
P12f2 Fab (Fab, V domains shown, Fab) VH: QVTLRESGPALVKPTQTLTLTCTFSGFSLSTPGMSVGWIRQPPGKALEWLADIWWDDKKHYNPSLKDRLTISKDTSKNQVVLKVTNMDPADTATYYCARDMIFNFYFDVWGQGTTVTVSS VL: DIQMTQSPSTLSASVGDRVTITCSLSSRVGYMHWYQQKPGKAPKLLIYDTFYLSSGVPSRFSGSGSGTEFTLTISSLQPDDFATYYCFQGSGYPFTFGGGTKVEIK	0.000282
